# MEASURED_TARGET: human IL-6 (human, UniProt P05231 30-212)
# Sequence (P05231 30-212 limits assumed): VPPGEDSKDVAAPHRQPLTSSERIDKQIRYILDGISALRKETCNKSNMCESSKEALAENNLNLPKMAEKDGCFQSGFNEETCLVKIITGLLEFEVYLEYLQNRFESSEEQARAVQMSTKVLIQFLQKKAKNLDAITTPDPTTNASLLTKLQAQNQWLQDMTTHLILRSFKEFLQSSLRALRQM
# METHOD_NOTES: SPR Biacore, supernatant, Protein A capture, 37 C
PROPERTY: kon (M⁻¹ s⁻¹)
Please state the figure in M⁻¹ s⁻¹; there is no need to write the unit.

Anti-IL-6 antibody, heavy chain S35H, G66D, L100I / light chain WT (antibody, IgG1, V domains shown, IgG1; variable domains only) VH: EVQLVESGGGLVQPGGSLRLSCAASGFTFSPFAMHWVRQAPGKGLEWVAKISPGGSWTYYSDTVTDRFTFSLDTSKSTAYLQMNSLRAEDTAVYYCARQIWGYYALDIWGQGTLVTVSS VL: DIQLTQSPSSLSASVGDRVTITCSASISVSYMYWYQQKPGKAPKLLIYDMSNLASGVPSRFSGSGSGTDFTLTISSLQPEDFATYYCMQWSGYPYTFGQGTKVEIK = 931000
Anti-IL-6 antibody, heavy chain G66D / light chain WT (antibody, IgG1, V domains shown, IgG1; variable domains only) VH: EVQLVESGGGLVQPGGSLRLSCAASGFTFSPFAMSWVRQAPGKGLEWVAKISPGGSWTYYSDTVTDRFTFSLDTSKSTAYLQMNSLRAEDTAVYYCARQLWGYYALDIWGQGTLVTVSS VL: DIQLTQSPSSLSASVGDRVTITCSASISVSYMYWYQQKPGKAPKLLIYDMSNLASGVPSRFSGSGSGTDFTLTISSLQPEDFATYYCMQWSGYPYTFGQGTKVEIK = 1.62e+06
Anti-IL-6 antibody, heavy chain S35H, G66D, L100H / light chain WT (antibody, IgG1, V domains shown, IgG1; variable domains only) VH: EVQLVESGGGLVQPGGSLRLSCAASGFTFSPFAMHWVRQAPGKGLEWVAKISPGGSWTYYSDTVTDRFTFSLDTSKSTAYLQMNSLRAEDTAVYYCARQHWGYYALDIWGQGTLVTVSS VL: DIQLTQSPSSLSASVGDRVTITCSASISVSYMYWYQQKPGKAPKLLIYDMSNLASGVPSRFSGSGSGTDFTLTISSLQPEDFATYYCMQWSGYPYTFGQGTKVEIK = 723000

Now turn to the next binder.
q: State, in one line, measured kon of Anti-IL-6 antibody, heavy chain S35H, G66D, L100F / light chain M32L, M50D, N52S, M88Q (antibody, IgG1, V domains shown, IgG1; variable domains only; VL is variant III) VH: EVQLVESGGGLVQPGGSLRLSCAASGFTFSPFAMHWVRQAPGKGLEWVAKISPGGSWTYYSDTVTDRFTFSLDTSKSTAYLQMNSLRAEDTAVYYCARQFWGYYALDIWGQGTLVTVSS VL: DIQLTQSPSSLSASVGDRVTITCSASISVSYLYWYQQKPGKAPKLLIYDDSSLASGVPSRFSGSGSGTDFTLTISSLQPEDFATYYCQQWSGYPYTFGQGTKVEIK
a: 1.46e+06
